EXPERIMENTAL_SYSTEM: Human PCSK9 (Genbank EF692496) containing a histidine (His)8 C-terminal tag (UniProt Q8NBP7 31-692)
TEST_PROTOCOL: BIAcore SPR
READOUT_KIND: pKd
Remember, pKd is on a log scale: it is -log10 of the molar concentration.

Exercise: Request the reported pKd associated with anti-PCSK9 antibody 508.20.28b (antibody, V domains shown) VH: EVQLVESGGGLVQPGGSLRLSCAASGFTFTRHTINWVRQAPGKGLEWVARISPANGNTNYADSVKGRFTISADTSKNTAYLQMNSLRAEDTAVYYCARWIGSRELYIMDYWGQGTLVTVSS VL: DIQMTQSPSSLSASVGDRVTITCRASQDVSTAVAWYQQKPGKAPKLLIYSASFLYSGVPSRFSGSGSGTDFTLTISSLQPEDFATYYCQQSYRIQPTFGQGTKVEIK
Key: 9.46
